system name: S1P1 (Homo sapiens)
Sequence (P21453 whole entry, species assumed): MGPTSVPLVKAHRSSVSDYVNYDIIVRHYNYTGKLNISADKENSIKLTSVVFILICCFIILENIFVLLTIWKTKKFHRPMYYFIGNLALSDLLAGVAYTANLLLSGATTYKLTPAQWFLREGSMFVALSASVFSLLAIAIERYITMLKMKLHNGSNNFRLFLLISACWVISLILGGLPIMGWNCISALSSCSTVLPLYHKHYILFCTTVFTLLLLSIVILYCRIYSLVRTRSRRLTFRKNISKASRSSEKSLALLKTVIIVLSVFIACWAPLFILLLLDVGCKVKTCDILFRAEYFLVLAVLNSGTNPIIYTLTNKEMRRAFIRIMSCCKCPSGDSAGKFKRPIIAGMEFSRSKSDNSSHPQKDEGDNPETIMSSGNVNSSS
test name: S1P selectivity counter screen, functional assay at S1P1
Assay type: cell-based
parameter measured: IC50

Query: Give the measured IC50 for Cc1cccc(C)c1NC(=O)c1ccc(-c2cc(Cl)ccc2Cl)o1 [compound 1]
Reply: > 25 µM

---

system name: S1P4 receptor (Homo sapiens)
Sequence (O95977 whole entry): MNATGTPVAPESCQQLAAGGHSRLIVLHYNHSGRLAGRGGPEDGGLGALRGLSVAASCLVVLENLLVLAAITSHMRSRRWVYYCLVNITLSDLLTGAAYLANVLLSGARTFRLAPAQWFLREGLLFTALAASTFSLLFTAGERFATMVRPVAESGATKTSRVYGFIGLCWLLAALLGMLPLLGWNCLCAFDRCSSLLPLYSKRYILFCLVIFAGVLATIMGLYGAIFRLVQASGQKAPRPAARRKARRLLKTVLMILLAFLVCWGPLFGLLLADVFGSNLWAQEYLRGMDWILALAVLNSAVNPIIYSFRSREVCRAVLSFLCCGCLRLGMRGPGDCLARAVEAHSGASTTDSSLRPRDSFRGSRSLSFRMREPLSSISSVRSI
test name: S1P4 functional antagonist assay
parameter measured: IC50 (nM)
Numbers only, in nM.

Query: Give the measured IC50 for Cc1cc(CO)cc(C)c1NC(=O)c1ccc(-c2cc(Cl)ccc2Cl)o1
Reply: 36
